- studySystem: Receptor tyrosine-protein kinase erbB-2 (Homo sapiens)
- Sequence (P04626 whole entry): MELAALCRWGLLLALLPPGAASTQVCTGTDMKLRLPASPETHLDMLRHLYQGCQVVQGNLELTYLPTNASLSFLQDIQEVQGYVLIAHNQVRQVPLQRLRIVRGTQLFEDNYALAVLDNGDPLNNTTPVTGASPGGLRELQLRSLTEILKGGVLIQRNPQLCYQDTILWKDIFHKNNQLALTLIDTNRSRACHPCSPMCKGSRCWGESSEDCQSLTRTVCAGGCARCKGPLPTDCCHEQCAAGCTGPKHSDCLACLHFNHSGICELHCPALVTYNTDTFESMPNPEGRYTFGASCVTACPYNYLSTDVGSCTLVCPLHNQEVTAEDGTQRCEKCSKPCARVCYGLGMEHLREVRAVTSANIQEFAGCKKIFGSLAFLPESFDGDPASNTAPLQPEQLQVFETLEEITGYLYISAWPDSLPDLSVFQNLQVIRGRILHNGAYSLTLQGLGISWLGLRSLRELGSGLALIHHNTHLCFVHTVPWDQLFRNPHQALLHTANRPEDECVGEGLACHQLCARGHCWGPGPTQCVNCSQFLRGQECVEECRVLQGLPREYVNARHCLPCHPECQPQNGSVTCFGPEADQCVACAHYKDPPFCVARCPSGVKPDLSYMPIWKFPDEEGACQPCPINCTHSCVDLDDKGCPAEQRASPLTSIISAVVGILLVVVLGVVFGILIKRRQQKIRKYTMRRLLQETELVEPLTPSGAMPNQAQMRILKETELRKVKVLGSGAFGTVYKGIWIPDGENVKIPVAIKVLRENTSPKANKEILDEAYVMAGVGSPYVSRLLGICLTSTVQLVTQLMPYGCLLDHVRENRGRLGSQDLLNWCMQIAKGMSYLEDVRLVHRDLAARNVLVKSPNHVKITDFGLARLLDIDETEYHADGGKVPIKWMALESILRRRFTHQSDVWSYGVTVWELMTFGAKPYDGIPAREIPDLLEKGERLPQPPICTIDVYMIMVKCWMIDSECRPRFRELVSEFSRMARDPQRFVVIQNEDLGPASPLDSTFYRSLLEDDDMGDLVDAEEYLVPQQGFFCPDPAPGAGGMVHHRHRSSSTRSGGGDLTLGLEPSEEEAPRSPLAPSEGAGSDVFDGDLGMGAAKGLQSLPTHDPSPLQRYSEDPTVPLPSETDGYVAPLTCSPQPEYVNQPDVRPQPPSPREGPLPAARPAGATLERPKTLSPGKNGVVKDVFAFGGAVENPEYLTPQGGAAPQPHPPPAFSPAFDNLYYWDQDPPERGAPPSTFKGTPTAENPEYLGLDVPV
measuredMetric: IC50 (nM)

- smilesRepresentation: "C=CC(=O)Nc1nc2c(Nc3ccc(F)c(Cl)c3)ncnc2cc1CCCCN1CCOCC1"
  prefixOperator: ">"
  readoutValue: 5000
- smilesRepresentation: "C=CC(=O)Nc1nc2c(Nc3ccc(F)c(Cl)c3)ncnc2cc1/C=C/CCN1CCOCC1"
  prefixOperator: "="
  readoutValue: 12
- smilesRepresentation: "C=CC(=O)Nc1cc2c(Nc3cccc(Br)c3)ncnc2cc1OCCCN1CCOCC1"
  prefixOperator: "="
  readoutValue: 6.4

----------
- studySystem: Epidermal growth factor receptor (Homo sapiens, UniProt P00533)
- Sequence (P00533 whole entry): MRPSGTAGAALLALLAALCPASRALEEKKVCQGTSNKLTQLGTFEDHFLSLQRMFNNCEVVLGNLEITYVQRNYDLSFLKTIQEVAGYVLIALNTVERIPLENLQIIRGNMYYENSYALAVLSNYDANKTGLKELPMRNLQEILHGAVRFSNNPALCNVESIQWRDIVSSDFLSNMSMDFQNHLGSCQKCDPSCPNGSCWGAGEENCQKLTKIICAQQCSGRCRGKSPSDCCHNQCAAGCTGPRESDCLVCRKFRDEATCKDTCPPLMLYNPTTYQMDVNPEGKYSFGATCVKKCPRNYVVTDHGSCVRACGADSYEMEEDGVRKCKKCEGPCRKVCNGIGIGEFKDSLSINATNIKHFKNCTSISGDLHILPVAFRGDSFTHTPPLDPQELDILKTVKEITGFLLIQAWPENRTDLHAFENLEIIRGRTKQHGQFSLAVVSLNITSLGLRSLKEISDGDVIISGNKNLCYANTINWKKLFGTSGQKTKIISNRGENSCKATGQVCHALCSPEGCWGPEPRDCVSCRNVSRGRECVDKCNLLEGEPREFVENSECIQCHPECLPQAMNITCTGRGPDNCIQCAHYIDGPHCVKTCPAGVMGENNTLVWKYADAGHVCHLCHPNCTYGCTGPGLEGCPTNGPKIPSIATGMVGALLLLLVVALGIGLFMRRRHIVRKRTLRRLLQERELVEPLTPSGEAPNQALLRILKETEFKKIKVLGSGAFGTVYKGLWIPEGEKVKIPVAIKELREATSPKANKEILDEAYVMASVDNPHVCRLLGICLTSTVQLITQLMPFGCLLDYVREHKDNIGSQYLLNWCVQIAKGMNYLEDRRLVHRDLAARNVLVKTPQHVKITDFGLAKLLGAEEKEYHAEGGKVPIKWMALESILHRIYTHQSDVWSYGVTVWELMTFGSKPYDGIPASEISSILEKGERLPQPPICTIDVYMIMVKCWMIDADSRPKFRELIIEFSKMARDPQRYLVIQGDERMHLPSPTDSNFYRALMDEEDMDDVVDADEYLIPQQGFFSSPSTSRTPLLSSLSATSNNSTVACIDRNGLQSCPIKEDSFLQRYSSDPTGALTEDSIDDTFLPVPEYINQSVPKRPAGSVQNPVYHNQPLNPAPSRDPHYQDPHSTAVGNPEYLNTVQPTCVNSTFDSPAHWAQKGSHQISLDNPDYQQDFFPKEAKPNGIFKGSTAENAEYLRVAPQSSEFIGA
pIC50: −log10 of the molar value.
Each record gets a class by pIC50: bin 1 (below 6), bin 2 (6 to below 7), bin 3 (7 or more)

- smilesRepresentation: "C=CC(=O)Nc1ccc2ncnc(Nc3ccc(OCCN(C)C)c(Br)c3)c2c1"
  categoryLabel: "bin 1"
- smilesRepresentation: "C=CC(=O)Nc1nc2c(Nc3ccc(F)c(Cl)c3)ncnc2cc1OC"
  categoryLabel: "bin 2"
- smilesRepresentation: "C=CC(=O)Nc1nc2c(Nc3ccc(F)c(Cl)c3)ncnc2cc1OCCCN1CCOCC1"
  categoryLabel: "bin 2"
- smilesRepresentation: "C=CC(=O)Nc1ccc2ncnc(Nc3ccc(CN(C)C)c(Br)c3)c2c1"
  categoryLabel: "bin 2"
- smilesRepresentation: "C=CC(=O)Nc1cc2c(Nc3cccc(C)c3)ncnc2cc1OCCCN1CCN(C)CC1"
  categoryLabel: "bin 3"
- smilesRepresentation: "C=CC(=O)Nc1cc2c(Nc3cccc(Br)c3)ncnc2cc1OCCCN1CCN(C)CC1"
  categoryLabel: "bin 3"
- smilesRepresentation: "C=CC(=O)Nc1cc2c(Nc3cccc(Br)c3)ncnc2cc1SCCCN(CC)CC"
  categoryLabel: "bin 2"
- smilesRepresentation: "C=CC(=O)Nc1nc2c(Nc3ccc(F)c(Cl)c3)ncnc2cc1OCCOC"
  categoryLabel: "bin 2"
- smilesRepresentation: "C=CC(=O)Nc1cc2c(Nc3ccc(F)c(Br)c3)ncnc2cc1OCCCN1CCOCC1"
  categoryLabel: "bin 3"
- smilesRepresentation: "C=CC(=O)Nc1nc2c(Nc3ccc(F)c(Cl)c3)ncnc2cc1CCCCN1CCOCC1"
  categoryLabel: "bin 1"
- smilesRepresentation: "C=CC(=O)Nc1nc2c(Nc3ccc(F)c(Cl)c3)ncnc2cc1OCCCN1CCN(C)CC1"
  categoryLabel: "bin 2"
- smilesRepresentation: "C=CC(=O)Nc1cc2c(Nc3cccc(Br)c3)ncnc2cc1OCCCCN(C)C"
  categoryLabel: "bin 3"
